Reference for the values: ChEMBL document CHEMBL3045996

- test-method-notes: Inhibition of juvenile hormone esterase
Reported pIC50 by item:
measured-metric: pIC50

INSERT INTO results (molecule, measured_metric, result_value) VALUES
  ('Cc1cccc(C)c1SCC(=O)C(F)(F)F', 'pIC50', 6.92),
  ('CCCCCCCCSC(C)C(=O)C(F)(F)F (stereo not drawn)', 'pIC50', 9.06),
  ('O=C(CSc1c(Cl)cccc1Cl)C(F)(F)F', 'pIC50', 7.11),
  ('CC(C)=CCCC(C)C/C=C\c1ccc(C(=O)C(F)(F)F)cc1 (stereo not drawn)', 'pIC50', 6.7),
  ('CCCCCCCCSC(CC)C(=O)C(F)(F)F (stereo not drawn)', 'pIC50', 5.32),
  ('O=C(CSc1c(Cl)c(Cl)c(Cl)c(Cl)c1Cl)C(F)(F)F', 'pIC50', 7.8),
  ('O=C(CSc1ccccc1Br)C(F)(F)F', 'pIC50', 6.17),
  ('CCCCCCCCCCCCCC(=O)C(F)(F)F', 'pIC50', 5.41),
  ('CCCCCCCCCCCCC#CC(=O)C(F)(F)F', 'pIC50', 8),
  ('CCCCCCCCCCCSCC(=O)C(F)(F)F', 'pIC50', 7.37),
  ('CCCCCCC(=O)C(F)(F)F', 'pIC50', 3.66),
  ('CCCCCCCCCCCCCCCCCC(=O)C(F)(F)F', 'pIC50', 4.85),
  ('CCCCCCCC[S+]([O-])CC(=O)C(F)(F)F (stereo not drawn)', 'pIC50', 7.37),
  ('Cc1ccc(SCC(=O)C(F)(F)F)cc1C', 'pIC50', 7.96),
  ('CC(C)=CCC/C(C)=C\CCSCC(=O)C(F)(F)F', 'pIC50', 8.51),
  ('CC(C)CCSCC(=O)C(F)(F)F', 'pIC50', 5.6),
  ('CCCCCCCCCCS(=O)(=O)CC(=O)C(F)(F)F', 'pIC50', 7.36),
  ('O=C(CSCCc1ccccc1)C(F)(F)F', 'pIC50', 5.49),
  ('COC(C)(C)CCC/C(C)=C\CCSCC(=O)C(F)(F)F', 'pIC50', 8.49),
  ('COc1ccc(C(=O)C(F)(F)F)cc1', 'pIC50', 4.15),
  ('O=C(CSc1ccccc1CO)C(F)(F)F', 'pIC50', 5.15),
  ('O=C(CSC1CCCC1)C(F)(F)F', 'pIC50', 5.01),
  ('CCCCCCCC/C=C/C(=O)C(F)(F)F', 'pIC50', 6.06),
  ('Cc1cc(C(C)(C)C)ccc1SCC(=O)C(F)(F)F', 'pIC50', 8.52),
  ('Cc1cccc(SCC(=O)C(F)(F)F)c1', 'pIC50', 6.89),
  ('CC(C/C=C\c1ccc(C(=O)C(F)(F)F)cc1)CCC1OC1(C)C (stereo not drawn)', 'pIC50', 6.52),
  ('O=C(CSc1ccccc1Oc1ccccc1)C(F)(F)F', 'pIC50', 6.66),
  ('CCCCC#CC(=O)C(F)(F)F', 'pIC50', 5.49);

###

- test-method-notes: Inhibition of juvenile hormone esterase
measured-metric: pIC50

INSERT INTO measurements (compound, measured_metric, result_value) VALUES
  ('O=C(CSc1ccccc1Cl)C(F)(F)F', 'pIC50', 5.68),
  ('CCCCCCCC(CC)SCC(=O)C(F)(F)F (stereo not drawn)', 'pIC50', 8.24),
  ('CCCCCCC#CC(=O)C(F)(F)F', 'pIC50', 6.4),
  ('COc1ccccc1SCC(=O)C(F)(F)F', 'pIC50', 5.7),
  ('CCCCCCCCSC(C(=O)C(F)(F)F)c1ccccc1 (stereo not drawn)', 'pIC50', 4.09),
  ('CCCCCCCCCSCC(=O)C(F)(F)F', 'pIC50', 8.43),
  ('CCCCCCCCCCCCCCCCCCSCC(=O)C(F)(F)F', 'pIC50', 6.3),
  ('Cc1cc(SCC(=O)C(F)(F)F)ccc1Br', 'pIC50', 7.89);
